- Tested on: GBM
- PROTOCOL_NOTES: Cytotoxicity against human GBM cells assessed as inhibition of cell growth incubated for 72 hrs by MTT assay
- Format: functional, cell-based
MEASURED_PROPERTY: pIC50
A value of pIC50 is the negative decimal logarithm of a concentration given in moles per litre.

Prompt: pIC50 lookup needed for `CC(C)=CCC1=C(NCCCCN(CCCN)Cc2ccccc2)C(=O)c2ccccc2C1=O` , thanks.
Response: 5.18

====

- Tested on: HT-29
- PROTOCOL_NOTES: Cytotoxicity against human HT-29 cells assessed as inhibition of cell growth incubated for 72 hrs by sulforhodamine B assay
- Format: functional, cell-based
- CONDITION_INFO: HT-29, 72 h
MEASURED_PROPERTY: IC50 (nM)
The figure you give is taken to be in nM; do not add the unit.

Prompt: Enter reported IC50 observed with HT-29 for `CN(C)N1C=C2C[C@@H](O[Si](C)(C)C(C)(C)C)[C@@H]3OC(C)(C)O[C@@H]3[C@H]2C2=C1C(=O)c1c(O)cccc1C2=O`
Response: 200

====

- System: MCF7
- PROTOCOL_NOTES: Cytotoxicity against human MCF7 cells incubated for 7 days by MTT assay
- Format: functional, cell-based
- CONDITION_INFO: MCF7, 168 h
MEASURED_PROPERTY: pIC50
A value of pIC50 is the negative decimal logarithm of a concentration given in moles per litre.

Prompt: pIC50 lookup needed for CC1=CC(=O)c2c(O)cccc2C1=O [PLUMBAGIN] , thanks.
Response: 6.00

====

- System: J82
- PROTOCOL_NOTES: Antiproliferative activity against human J82 cells assessed as inhibition of cell growth incubated for 72 hrs by MTT assay
- Format: functional, cell-based
- CONDITION_INFO: J82, 72 h
MEASURED_PROPERTY: pIC50
A value of pIC50 is the negative decimal logarithm of a concentration given in moles per litre.

Prompt: pIC50 lookup needed for `CC(=O)N(C1=C2NCCN=C2c2ccccc2C1=O)c1ccccc1` , thanks.
Response: 5.70

====

- PROTOCOL_NOTES: Antiproliferative activity against human CAL-78 cells assessed as inhibition of cell growth incubated for 24 hrs by CellTiter-Glo luminescent assay
- Assay type: functional, cell-based
- CONDITION_INFO: CAL-78, 24 h
MEASURED_PROPERTY: IC50 (nM)
The figure you give is taken to be in nM; do not add the unit.

Prompt: IC50 lookup needed for `CC(C)=CC[C@@H](OC(=O)C1CC1)C1=CC(=O)c2c(O)ccc(O)c2C1=O` , thanks.
Response: 2900

====

- Tested on: HepG2
- PROTOCOL_NOTES: Antiproliferative activity against human HepG2 cells assessed as inhibition of cell growth incubated for 24 hrs by MTT assay
- Type: functional, cell-based
- CONDITION_INFO: HepG2, 24 h
MEASURED_PROPERTY: IC50 (µM)
The figure you give is taken to be in µM; do not add the unit.

>>> df
                                   molecule  number
0  O=C1C=C(SCCC(=O)N2CCN(c3ccccc3F)CC2)C(=O)c2ccccc21    18.7

Prompt: IC50 lookup needed for CCCCCCCC[S+]([O-])C1=CC(=O)c2ccccc2C1=O (configuration not stated) , thanks.
Response: 8.56

====

- Test system: SAOS-2
- PROTOCOL_NOTES: Antiproliferative activity against human SAOS-2 cells assessed as inhibition of cell growth incubated for 48 hrs by MTT assay
- Type: functional, cell-based
- CONDITION_INFO: SAOS-2, 48 h
MEASURED_PROPERTY: pIC50
A value of pIC50 is the negative decimal logarithm of a concentration given in moles per litre.

Prompt: pIC50 lookup needed for `CC(=O)N[C@@H](CSC1=CC(=O)c2ccccc2C1=O)C(=O)O` , thanks.
Response: 5.78

====

- System: MDA-MB-468
- PROTOCOL_NOTES: Cytotoxicity against human MDA-MB-468 cells incubated for 24 hrs by CCK-8 assay
- Assay type: functional, cell-based
- CONDITION_INFO: MDA-MB-468, 24 h
MEASURED_PROPERTY: IC50 (µM)
The figure you give is taken to be in µM; do not add the unit.

Prompt: IC50 lookup needed for `CC(C)=CC[C@H](O)C1=CC(=O)c2c(O)ccc(O)c2C1=O` , thanks.
Response: 4

====

In this section we review reported IC50 values for a set of molecules.
- Test system: AGS
- PROTOCOL_NOTES: Antiproliferative activity against human AGS cells assessed as inhibition of cell growth incubated for 24 hrs by MTT reagent based microplate reader assay
- Format: functional
The figure you give is taken to be in nM; do not add the unit.

Prompt: IC50 lookup needed for `COc1ccc(SC2=CC(=O)c3c(OC)ccc(OC)c3C2=O)cc1` , thanks.
Response: 320

Prompt: IC50 lookup needed for `COc1ccc(OC)c2c1C(=O)C=C(Sc1ccc3ccccc3c1)C2=O` , thanks.
Response: 420

====

- Test system: HCT-116
- PROTOCOL_NOTES: Cytotoxicity against human HCT-116 cells assessed as reduction in cell viability incubated for 48 hrs by MTT reagent based spectrophotometric analysis
- Assay type: functional
- CONDITION_INFO: HCT-116, 48 h
MEASURED_PROPERTY: IC50
Please give the number followed by its unit.

Prompt: IC50 lookup needed for CCCNC(=O)C(Cc1ccccc1)NC1=C/C(=N/O)c2ccccc2C1=O (stereo unspecified) , thanks.
Response: 180 nM

====

- System: HCT-116
- PROTOCOL_NOTES: Antiproliferative activity against human HCT-116 cells assessed as inhibition of cell growth incubated for 72 hrs by MTT assay
- Type: functional, cell-based
- CONDITION_INFO: HCT-116, 72 h
MEASURED_PROPERTY: IC50 (µM)
The figure you give is taken to be in µM; do not add the unit.

Recorded IC50, per entry:
>>> print(df.to_string())
                                   compound  target_desc  number
0      C[C@H](NC1=CC(=O)c2ccccc2C1=O)C(=O)O      HCT-116    4.52
1  O=C1C2=C(C(=O)c3ccccc31)C(CCc1ccccc1)c1sc(=O)[nH]c1S2 (stereo not drawn)      HCT-116    6.37

Prompt: Enter reported IC50 observed with HCT-116 for `COc1ccc(N(Cc2cn(S(=O)(=O)c3ccc(C)cc3)nn2)C2=CC(=O)c3ccccc3C2=O)cc1`
Response: 0.46

====

- Test system: HeLa
- PROTOCOL_NOTES: Cytotoxicity against human HeLa cells assessed as reduction in cell viability incubated for 24 hrs by MTT assay
- Type: functional, cell-based
MEASURED_PROPERTY: IC50 (nM)
The figure you give is taken to be in nM; do not add the unit.

Prompt: IC50 lookup needed for `O=C(Nc1ccc(S(=O)(=O)c2ccc(NC3=C(Sc4ccccc4)C(=O)c4ccccc4C3=O)cc2)cc1)c1cc(Cl)cc(Cl)c1` , thanks.
Response: 1170

====

- Test system: A549
- PROTOCOL_NOTES: Cytotoxicity against human A549 cells incubated for 72 hrs by MTT assay
- Format: functional, cell-based
- CONDITION_INFO: A549, 72 h
MEASURED_PROPERTY: pIC50
A value of pIC50 is the negative decimal logarithm of a concentration given in moles per litre.

Prompt: pIC50 lookup needed for `CC1(C)O[C@H]2[C@@H](O1)[C@@H](Cn1nnc3c1C(=O)c1cccc(O)c1C3=O)O[C@@H]1OC(C)(C)O[C@@H]12` , thanks.
Response: 6.00

====

- Test system: U-937
- PROTOCOL_NOTES: Cytotoxicity against human U-937 cells assessed as reduction in cell viability incubated for 72 hrs by resazurin assay
- Format: functional, cell-based
- CONDITION_INFO: U-937, 72 h
MEASURED_PROPERTY: pIC50
A value of pIC50 is the negative decimal logarithm of a concentration given in moles per litre.

Prompt: Enter reported pIC50 observed with U-937 for `CC(C)=CC[C@@H](OC(=O)C(C)C)C1=CC(=O)c2c(O)ccc(O)c2C1=O`
Response: 7.30

====

- System: MDA-MB-231
- PROTOCOL_NOTES: Cytotoxicity against human MDA-MB-231 cells incubated for 48 hrs by MTT assay
- Format: functional, cell-based
- CONDITION_INFO: MDA-MB-231, 48 h
MEASURED_PROPERTY: pIC50
A value of pIC50 is the negative decimal logarithm of a concentration given in moles per litre.

                                   molecule  number
0  CCCCCCCCC(OCCC(C)C)c1ccc2c(c1OC)/C(=N\O)C=C/C2=N\O (configuration not stated)    6.18

Next item in the queue.
Prompt: pIC50 lookup needed for C=CC(C)(C)C(OCCCCCCO)c1cc(OC)c2c(c1OC)/C(=N\O)C=C/C2=N\O (configuration not stated) , thanks.
Response: 5.07
